Record form. Attribute: pEC50. Fill in for each entry.
- System: Human immunodeficiency virus 1
- protocol summary: Antiviral activity against HIV1 harboring reverse transcriptase Y188L mutant infected in human MT4 cells assessed as inhibition of viral replication after 5 days by MTT assay
- Assay type: functional, organism-based
- assay conditions: Human immunodeficiency virus 1, MT4, 120 h
Numbers only, as −log10 of the molar value.

{"structure": "Cc1cc(C)c(Oc2cc(Nc3ccc(C#N)cc3)ncc2C(=O)NCc2cn(CC(N)=O)nn2)c(C)c1", "assay system": "Human immunodeficiency virus 1", "value measured": 5.35}
{"structure": "Cc1cc(C)c(Oc2cc(Nc3ccc(C#N)cc3)ncc2C(=O)NCc2cn(CCC#N)nn2)c(C)c1", "assay system": "Human immunodeficiency virus 1", "value measured": 5.65}
{"structure": "Cc1cc(C)c(Oc2cc(Nc3ccc(C#N)cc3)ncc2C(=O)NCc2cn(CC(=O)N3CCCC3)nn2)c(C)c1", "assay system": "Human immunodeficiency virus 1", "value measured": 5.83}

Kindly consider the entry below.
# get_value(readout='pEC50', item= Cc1cc(C)c(Oc2cc(Nc3ccc(C#N)cc3)ncc2C(=O)NCc2cn(CC(=O)N3CCOCC3)nn2)c(C)c1 )
5.15

----------
- protocol summary: Selectivity index, ratio of CC50 for human MT4 cells to EC50 for HIV1 harboring reverse transcriptase E138K mutant
- Type: toxicity
- assay conditions: read-out: Ratio CC50/EC50
The threshold is inclusive: selectivity ratio of exactly 800 counts as 1; values below receive -1.

{"structure": "Cc1cc(C)c(Oc2cc(Nc3ccc(C#N)cc3)ncc2C(=O)NCc2cn(CCCO)nn2)c(C)c1", "qualitative label": -1}

Does selectivity ratio meet or surpass 800 for Cc1cc(C)c(Oc2cc(Nc3ccc(C#N)cc3)ncc2C(=O)NCc2cn(CC(=O)N3CCCC3)nn2)c(C)c1 ?
1

Does selectivity ratio meet or surpass 800 for Cc1cc(C)c(Oc2cc(Nc3ccc(C#N)cc3)ncc2C(=O)NCc2cn(CC(N)=O)nn2)c(C)c1 ?
-1

Does selectivity ratio meet or surpass 800 for Cc1cc(C)c(Oc2cc(Nc3ccc(C#N)cc3)ncc2C(=O)NCc2cn(CC(=O)N3CCOCC3)nn2)c(C)c1 ?
1

Does selectivity ratio meet or surpass 800 for CC(=O)Cn1cc(CNC(=O)c2cnc(Nc3ccc(C#N)cc3)cc2Oc2c(C)cc(C)cc2C)nn1 ?
-1

Does selectivity ratio meet or surpass 800 for Cc1cc(C)c(Oc2cc(Nc3ccc(C#N)cc3)ncc2C(=O)NCc2cn(CCC#N)nn2)c(C)c1 ?
1

----------
- protocol summary: Selectivity index, ratio of CC50 for human TZM-bl cells to EC50 for wild-type HIV-1 NL4-3 infected in human TZM-bl cells
- Type: toxicity, cell-based
- assay conditions: read-out: Ratio CC50/EC50
measure: selectivity ratio

{"structure": "Cc1cc(C)c(Oc2cc(Nc3ccc(C#N)cc3)ncc2C(=O)NCc2cn(CC(=O)N3CCOCC3)nn2)c(C)c1", "measure": "selectivity ratio", "value measured": "> 10.8"}

Kindly consider the entry below.
# get_value(readout='selectivity ratio', item= Cc1cc(C)c(Oc2cc(Nc3ccc(C#N)cc3)ncc2C(=O)NCc2cn(CC(=O)N3CCCC3)nn2)c(C)c1 )
> 9.2

----------
- Test system: Human immunodeficiency virus 1
- protocol summary: Antiviral activity against HIV1 harboring reverse transcriptase Y188L mutant infected in human MT4 cells assessed as inhibition of viral replication after 5 days by MTT assay
- Format: functional, organism-based
- assay conditions: Human immunodeficiency virus 1, MT4, 120 h
Record form. Attribute: EC50. Fill in for each entry.
Answers are plain numbers, in nM.

The examples below pair each entry with its known result.
{"structure": "Cc1cc(C#N)cc(C)c1Oc1nc(Nc2ccc(C#N)cc2)nc(N)c1Br", "assay system": "Human immunodeficiency virus 1", "reading unit": "nM", "value measured": 11}
{"structure": "CC(C)Nc1cccnc1N1CCN(C(=O)c2cc3cc(NS(C)(=O)=O)ccc3[nH]2)CC1", "assay system": "Human immunodeficiency virus 1", "reading unit": "nM", "value measured": 840}
{"structure": "CC(=O)Cn1cc(CNC(=O)c2cnc(Nc3ccc(C#N)cc3)cc2Oc2c(C)cc(C)cc2C)nn1", "assay system": "Human immunodeficiency virus 1", "reading unit": "nM", "value measured": 3200}

# get_value(readout='EC50', item= Cc1cc(C)c(Oc2cc(Nc3ccc(C#N)cc3)ncc2C(=O)NCc2cn(CCCO)nn2)c(C)c1 )
3170
